- System: U-87 MG
- Experimental details: Antiproliferative activity against human U-87 MG cells assessed as inhibition of cell growth incubated for 72 hrs by cell-titer glo assay
- Type: functional, cell-based, U-87MG ATCC
Property label: IC50 (nM)
Numeric only. Scale: nM

Query string: Answer briefly: IC50 recorded on U-87 MG for CN1CCN(c2ccc(OC(F)(F)F)c(Nc3ncc4c(n3)-c3c(c(C(N)=O)nn3CCO)CC4)c2)CC1
Result string: 991

---

- Experimental details: Volume of distribution at steady state in nu/nu mouse at 10 mg/kg, iv by LC-MS analysis
- Format: ADME, organism-based
- Protocol conditions: in vivo, read-out: Vdss
Property label: Vd (L/kg)
The reply should contain only the number, in L/kg.

Query string: Entry CN1CCN(c2ccc(OC(F)(F)F)c(Nc3ncc4c(n3)-c3c(c(C(N)=O)nn3CCO)CC4)c2)CC1 [ONVANSERTIB] needs its Vd filled in; supply it.
Result string: 1.7

---

pIC50: −log10 of the molar value.
Property label: pIC50

Query string: Specify the recorded pIC50 for CN1CCN(c2ccc(OC(F)(F)F)c(Nc3ncc4c(n3)-c3c(c(C(N)=O)nn3CCO)CC4)c2)CC1 , system: Serine/threonine-protein kinase Chk1 (Homo sapiens).
Sequence (O14757 whole entry): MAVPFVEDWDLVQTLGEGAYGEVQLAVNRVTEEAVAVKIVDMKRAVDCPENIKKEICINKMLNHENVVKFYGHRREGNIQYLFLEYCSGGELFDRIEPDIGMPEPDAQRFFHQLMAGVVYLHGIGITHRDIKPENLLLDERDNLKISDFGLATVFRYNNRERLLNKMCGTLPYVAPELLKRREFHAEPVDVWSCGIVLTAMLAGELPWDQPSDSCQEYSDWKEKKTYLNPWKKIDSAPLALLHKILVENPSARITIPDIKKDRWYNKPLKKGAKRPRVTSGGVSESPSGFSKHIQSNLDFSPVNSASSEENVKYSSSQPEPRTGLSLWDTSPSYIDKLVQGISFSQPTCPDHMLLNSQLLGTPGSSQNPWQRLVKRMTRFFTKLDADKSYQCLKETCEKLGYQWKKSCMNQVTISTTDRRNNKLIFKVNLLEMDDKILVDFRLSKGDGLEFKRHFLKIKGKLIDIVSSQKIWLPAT
Result string: < 5.00

---

- Target entity: Cyclin-dependent kinase 2/cyclin E1 (Homo sapiens)
- Experimental details: Inhibition of CDK2/CycE (unknown origin) in presence of [gamma-33P]ATP
pIC50: −log10 of the molar value.
Property label: pIC50

Query string: Output pIC50 of CN1CCN(c2ccc(OC(F)(F)F)c(Nc3ncc4c(n3)-c3c(c(C(N)=O)nn3CCO)CC4)c2)CC1 [ONVANSERTIB]
Result string: < 5.00

---

- Tested on: SF-268
- Experimental details: Antiproliferative activity against human SF-268 cells assessed as inhibition of cell growth incubated for 72 hrs by cell-titer glo assay
- Format: functional, cell-based
- Protocol conditions: SF-268, 72 h
Property label: pIC50
On this scale, pIC50 is minus log10 of a concentration expressed in M (mol/L).

Query string: Look up and state reported pIC50 for CN1CCN(c2ccc(OC(F)(F)F)c(Nc3ncc4c(n3)-c3c(c(C(N)=O)nn3CCO)CC4)c2)CC1
Result string: 7.05

---

- Experimental details: Clearance in male cynomolgus monkey at 5 mg/kg, iv by LC-MS analysis
- Type: ADME, organism-based, Macaca fascicularis
- Protocol conditions: in vivo
Property label: clearance (mL/min/kg)
Provide the reading as a plain figure in mL/min/kg.

Query string: Give me measured clearance, please, for this molecule: CN1CCN(c2ccc(OC(F)(F)F)c(Nc3ncc4c(n3)-c3c(c(C(N)=O)nn3CCO)CC4)c2)CC1
Result string: 11.2

---

- Experimental details: Volume of distribution at steady state in Beagle dog at 5 mg/kg, iv by LC-MS analysis
- Type: ADME, organism-based, Canis lupus familiaris
- Protocol conditions: in vivo, read-out: Vdss
Property label: Vd (L/kg)
Entry rule: numbers only, all in L/kg.

Query string: Query Vd for CN1CCN(c2ccc(OC(F)(F)F)c(Nc3ncc4c(n3)-c3c(c(C(N)=O)nn3CCO)CC4)c2)CC1
Result string: 9.5

---

- Experimental details: Cmax in nu/nu mouse at 10 mg/kg, po by LC-MS analysis
- Assay type: ADME, organism-based
- Protocol conditions: in vivo
Property label: Cmax (nM)
Provide the reading as a plain figure in nM.

Query string: Read the entry CN1CCN(c2ccc(OC(F)(F)F)c(Nc3ncc4c(n3)-c3c(c(C(N)=O)nn3CCO)CC4)c2)CC1 and write its reported Cmax.
Result string: 600

---

- Experimental details: Inhibition of PKAalpha (unknown origin) in presence of [gamma-33P]ATP
- Set-up: species or system Homo sapiens
Property label: IC50

Query string: State its IC50: CN1CCN(c2ccc(OC(F)(F)F)c(Nc3ncc4c(n3)-c3c(c(C(N)=O)nn3CCO)CC4)c2)CC1
Result string: > 10 µM

---

Property label: IC50

Query string: Fetch value of IC50 on Serine/threonine-protein kinase pim-2 (Homo sapiens, UniProt Q9P1W9) for CN1CCN(c2ccc(OC(F)(F)F)c(Nc3ncc4c(n3)-c3c(c(C(N)=O)nn3CCO)CC4)c2)CC1 [ONVANSERTIB] .
Sequence (Q9P1W9 whole entry): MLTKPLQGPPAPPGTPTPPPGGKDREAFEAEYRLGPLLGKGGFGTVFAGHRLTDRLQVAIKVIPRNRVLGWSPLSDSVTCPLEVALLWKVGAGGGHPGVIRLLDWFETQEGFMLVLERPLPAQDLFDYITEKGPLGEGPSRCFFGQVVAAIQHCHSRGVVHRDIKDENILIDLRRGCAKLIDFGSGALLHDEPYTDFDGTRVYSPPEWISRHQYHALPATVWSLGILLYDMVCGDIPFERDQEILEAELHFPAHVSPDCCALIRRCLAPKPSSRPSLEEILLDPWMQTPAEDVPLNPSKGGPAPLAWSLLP
Result string: > 10 µM

---

- Target entity: MAP kinase-activated protein kinase 2 (Homo sapiens)
- Sequence (P49137 whole entry): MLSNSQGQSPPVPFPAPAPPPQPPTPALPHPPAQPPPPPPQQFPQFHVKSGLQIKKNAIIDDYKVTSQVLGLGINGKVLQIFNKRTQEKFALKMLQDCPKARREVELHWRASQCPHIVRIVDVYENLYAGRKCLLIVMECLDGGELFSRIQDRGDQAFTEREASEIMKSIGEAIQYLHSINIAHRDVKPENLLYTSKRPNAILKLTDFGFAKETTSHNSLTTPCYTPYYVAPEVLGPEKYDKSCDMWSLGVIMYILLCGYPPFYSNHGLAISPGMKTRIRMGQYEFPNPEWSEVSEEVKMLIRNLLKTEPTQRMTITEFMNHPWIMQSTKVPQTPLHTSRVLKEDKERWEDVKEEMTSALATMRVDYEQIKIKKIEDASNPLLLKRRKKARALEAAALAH
- Experimental details: Inhibition of MAPKAPK2 (unknown origin) in presence of [gamma-33P]ATP
Property label: IC50

Query string: Indicate the recorded IC50 value for this molecule: CN1CCN(c2ccc(OC(F)(F)F)c(Nc3ncc4c(n3)-c3c(c(C(N)=O)nn3CCO)CC4)c2)CC1 [ONVANSERTIB]
Result string: > 10 µM

---

- Target entity: Cyclin-dependent kinase 4/cyclin D1 (Homo sapiens)
- Sequence (P11802 whole entry): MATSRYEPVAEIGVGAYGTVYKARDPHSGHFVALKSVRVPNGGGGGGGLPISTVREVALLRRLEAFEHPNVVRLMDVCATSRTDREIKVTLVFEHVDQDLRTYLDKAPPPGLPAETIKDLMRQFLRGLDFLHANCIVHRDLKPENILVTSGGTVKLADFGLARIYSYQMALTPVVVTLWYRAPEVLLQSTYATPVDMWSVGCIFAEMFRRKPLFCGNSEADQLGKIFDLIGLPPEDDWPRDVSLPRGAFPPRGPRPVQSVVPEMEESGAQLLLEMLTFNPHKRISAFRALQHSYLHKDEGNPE
- Sequence (P24385 whole entry, further chain): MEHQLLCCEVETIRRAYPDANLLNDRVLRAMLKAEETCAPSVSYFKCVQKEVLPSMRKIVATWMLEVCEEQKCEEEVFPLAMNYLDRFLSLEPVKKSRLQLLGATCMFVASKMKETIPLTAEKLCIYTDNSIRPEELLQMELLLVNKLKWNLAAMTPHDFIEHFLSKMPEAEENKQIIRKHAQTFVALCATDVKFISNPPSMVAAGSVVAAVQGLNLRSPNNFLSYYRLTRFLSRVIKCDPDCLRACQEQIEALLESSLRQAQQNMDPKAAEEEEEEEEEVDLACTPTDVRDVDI
- Experimental details: Inhibition of CDK4/CycD1 (unknown origin) in presence of [gamma-33P]ATP
- Format: protein-complex assay
Property label: IC50

Query string: Write down IC50 measured for item CN1CCN(c2ccc(OC(F)(F)F)c(Nc3ncc4c(n3)-c3c(c(C(N)=O)nn3CCO)CC4)c2)CC1 [ONVANSERTIB]
Result string: > 10 µM

---

- Test system: U-118-MG
- Experimental details: Antiproliferative activity against human U-118-MG cells assessed as inhibition of cell growth incubated for 72 hrs by cell-titer glo assay
- Type: functional, cell-based
Property label: IC50 (nM)
State the answer as a number, implicitly in nM.

Query string: In one line, give reported IC50 of the entry CN1CCN(c2ccc(OC(F)(F)F)c(Nc3ncc4c(n3)-c3c(c(C(N)=O)nn3CCO)CC4)c2)CC1 [ONVANSERTIB] .
Result string: 220

---

- System: RS4-11
- Experimental details: Antiproliferative activity against human RS4-11 cells assessed as inhibition of cell growth incubated for 72 hrs by cell-titer glo assay
- Assay type: functional, cell-based
- Protocol conditions: RS4-11, 72 h
Property label: pIC50
When answering, recall that pIC50 equals minus log10 of the concentration in mol/L, and write that number alone.

Query string: Input CN1CCN(c2ccc(OC(F)(F)F)c(Nc3ncc4c(n3)-c3c(c(C(N)=O)nn3CCO)CC4)c2)CC1 , output reported pIC50.
Result string: 7.37

---

- Target entity: Glycogen synthase kinase-3 beta (Homo sapiens)
- Sequence (P49841 whole entry): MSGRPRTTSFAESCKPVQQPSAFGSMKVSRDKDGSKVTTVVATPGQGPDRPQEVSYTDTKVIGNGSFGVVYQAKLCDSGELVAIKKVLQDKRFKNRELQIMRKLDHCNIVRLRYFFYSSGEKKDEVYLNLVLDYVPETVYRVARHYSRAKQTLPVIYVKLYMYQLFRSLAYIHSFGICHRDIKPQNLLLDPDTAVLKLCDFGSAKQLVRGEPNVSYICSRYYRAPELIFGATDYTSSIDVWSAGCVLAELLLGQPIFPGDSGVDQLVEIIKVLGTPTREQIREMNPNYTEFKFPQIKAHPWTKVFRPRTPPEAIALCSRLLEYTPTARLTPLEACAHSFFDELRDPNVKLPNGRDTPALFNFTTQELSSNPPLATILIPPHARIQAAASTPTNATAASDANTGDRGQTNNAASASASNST
pIC50: −log10 of the molar value.
Property label: pIC50

Query string: // fetch pIC50 given entry CN1CCN(c2ccc(OC(F)(F)F)c(Nc3ncc4c(n3)-c3c(c(C(N)=O)nn3CCO)CC4)c2)CC1 [ONVANSERTIB]
Result string: < 5.00

---

- System: EVSA-T
- Experimental details: Antiproliferative activity against human EVSA-T cells assessed as inhibition of cell growth incubated for 72 hrs by cell-titer glo assay
- Format: functional, cell-based
Property label: pIC50
// pIC50 is dimensionless: -log10 of concentration (M)

Query string: Return pIC50 (reported value) for this molecule: CN1CCN(c2ccc(OC(F)(F)F)c(Nc3ncc4c(n3)-c3c(c(C(N)=O)nn3CCO)CC4)c2)CC1
Result string: 7.39

---

- Tested on: MIA PaCa-2
- Experimental details: Antiproliferative activity against human MIA PaCa-2 cells assessed as inhibition of cell growth incubated for 72 hrs by cell-titer glo assay
- Format: functional, cell-based
- Protocol conditions: MIA PaCa-2, 72 h
Property label: pIC50
The read-out pIC50 is expressed as -log10 of concentration in moles per litre.

Query string: Using the record for CN1CCN(c2ccc(OC(F)(F)F)c(Nc3ncc4c(n3)-c3c(c(C(N)=O)nn3CCO)CC4)c2)CC1 [ONVANSERTIB] , state its measured pIC50.
Result string: 6.95

---

- Target entity: Mitogen-activated protein kinase 14 (Homo sapiens, UniProt Q16539)
- Sequence (Q16539 whole entry): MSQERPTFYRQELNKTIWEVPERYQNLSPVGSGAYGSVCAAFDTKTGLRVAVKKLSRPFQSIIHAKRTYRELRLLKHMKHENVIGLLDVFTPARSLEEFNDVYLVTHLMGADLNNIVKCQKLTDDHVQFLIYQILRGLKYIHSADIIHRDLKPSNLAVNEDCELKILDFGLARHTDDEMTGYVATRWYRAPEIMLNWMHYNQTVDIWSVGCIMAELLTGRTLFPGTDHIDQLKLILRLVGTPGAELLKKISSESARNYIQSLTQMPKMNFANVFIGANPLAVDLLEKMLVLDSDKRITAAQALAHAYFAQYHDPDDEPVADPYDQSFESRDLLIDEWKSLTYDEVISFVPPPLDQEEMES
- Experimental details: Inhibition of P38alpha (unknown origin) in presence of [gamma-33P]ATP
Property label: IC50

Query string: Return IC50 for the following compound: CN1CCN(c2ccc(OC(F)(F)F)c(Nc3ncc4c(n3)-c3c(c(C(N)=O)nn3CCO)CC4)c2)CC1 [ONVANSERTIB]
Result string: > 10 µM

---

- System: Caco-2
- Experimental details: Antiproliferative activity against human Caco-2 cells assessed as inhibition of cell growth incubated for 72 hrs by cell-titer glo assay
- Assay type: functional, cell-based
- Protocol conditions: Caco-2, 72 h
Property label: IC50 (µM)
# value in µM; strip the unit string

Query string: Answer with the recorded IC50 of CN1CCN(c2ccc(OC(F)(F)F)c(Nc3ncc4c(n3)-c3c(c(C(N)=O)nn3CCO)CC4)c2)CC1 only.
Result string: 4.76

---

- Target entity: Inhibitor of nuclear factor kappa-B kinase subunit beta (Homo sapiens, UniProt O14920)
- Sequence (O14920 whole entry): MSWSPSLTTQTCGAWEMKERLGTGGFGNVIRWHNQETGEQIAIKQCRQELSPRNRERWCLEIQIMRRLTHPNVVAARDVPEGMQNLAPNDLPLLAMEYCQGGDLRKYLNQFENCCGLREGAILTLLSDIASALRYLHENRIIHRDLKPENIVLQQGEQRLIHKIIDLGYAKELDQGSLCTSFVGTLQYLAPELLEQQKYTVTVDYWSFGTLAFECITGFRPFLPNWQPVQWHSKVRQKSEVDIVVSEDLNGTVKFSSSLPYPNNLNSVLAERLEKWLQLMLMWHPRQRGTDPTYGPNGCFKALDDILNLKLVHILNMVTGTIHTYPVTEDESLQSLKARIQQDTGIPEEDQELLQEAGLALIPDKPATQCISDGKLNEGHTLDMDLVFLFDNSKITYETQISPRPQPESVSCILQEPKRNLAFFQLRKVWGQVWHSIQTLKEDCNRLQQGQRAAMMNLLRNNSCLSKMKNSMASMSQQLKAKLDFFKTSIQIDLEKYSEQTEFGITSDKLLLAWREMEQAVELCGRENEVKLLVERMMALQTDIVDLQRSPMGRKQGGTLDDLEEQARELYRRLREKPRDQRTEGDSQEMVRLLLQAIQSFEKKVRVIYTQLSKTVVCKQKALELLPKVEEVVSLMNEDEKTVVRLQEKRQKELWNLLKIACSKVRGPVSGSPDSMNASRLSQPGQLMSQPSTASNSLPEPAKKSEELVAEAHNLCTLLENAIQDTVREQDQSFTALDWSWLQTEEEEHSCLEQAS
- Experimental details: Inhibition of IKK2 (unknown origin) in presence of [gamma-33P]ATP
pIC50: −log10 of the molar value.
Property label: pIC50

Query string: Give the value of pIC50 reported for the following: CN1CCN(c2ccc(OC(F)(F)F)c(Nc3ncc4c(n3)-c3c(c(C(N)=O)nn3CCO)CC4)c2)CC1
Result string: < 5.00
